system: Vero E6 infected with SARS-CoV-2; assay: inhibition of SARS-CoV-2 cytopathic effect; higher = more antiviral protection, active = above 15; conditions: 833.33 nM; 48 h
measured-metric: inhibition of SARS-CoV-2 cytopathic effect (%)
Give just the number in %; leave the unit off.

*Q* Write down inhibition of SARS-CoV-2 cytopathic effect measured for item `c1cc(-c2cnn3cc(-c4ccc(N5CCNCC5)cc4)cnc23)c2cccnc2c1`
*A* -2.22

*Q* Output inhibition of SARS-CoV-2 cytopathic effect of c1ccc2c(CC3=NCCN3)cccc2c1 [naphazoline]
*A* 2.24

*Q* // Input: `Clc1cccc(N2CCNCC2)c1` . Output its inhibition of SARS-CoV-2 cytopathic effect only.
*A* -3.2

*Q* Input C[C@H]1NCc2cc(-c3ccc4c(=O)c(C(=O)O)cn(C5CC5)c4c3OC(F)F)ccc21 [garenoxacin] , output reported inhibition of SARS-CoV-2 cytopathic effect.
*A* 3.28

*Q* Give a short answer stating reported inhibition of SARS-CoV-2 cytopathic effect for CCCCCCCCCCCC[N+](C)(C)CCOc1ccccc1 [domiphen] .
*A* 0.26

*Q* Identify inhibition of SARS-CoV-2 cytopathic effect associated with the molecule CC(=O)NCCc1c[nH]c2ccccc12 [N-acetyltryptamine]
*A* -0.38

*Q* State its inhibition of SARS-CoV-2 cytopathic effect: O=C1c2ccccc2-n2c1nc1ccccc1c2=O [tryptanthrin]
*A* 0.62

*Q* Retrieve inhibition of SARS-CoV-2 cytopathic effect measured for CC(C)COc1ccc(CNC(=O)N(Cc2ccc(F)cc2)C2CCN(C)CC2)cc1 [pimavanserin] and print it.
*A* -0.47

*Q* Look up and report measured inhibition of SARS-CoV-2 cytopathic effect for this entry: COC(=O)[C@H](Cc1cccc(C(=N)N)c1)[C@@H](C)NC(=O)c1ccc(-c2cc[n+]([O-])cc2)cc1 [otamixaban]
*A* -0.51

*Q* Report measured inhibition of SARS-CoV-2 cytopathic effect; entry is `COc1ccc(Br)cc1S(=O)(=O)NC(=O)/C=C/c1ccccc1Cc1ccc2ccccc2c1`
*A* 3.35
